Entry source: paper PMC11488661

TARGET UNDER TEST: eOD-GT8 (monomeric ligand) (Human immunodeficiency virus 1, …)
OBSERVATION TYPE: pKd
// returns pKd (minus log10 of molar concentration), number only

These solved cases illustrate the format of a correct answer.
binder="g28v2-D38-2_CLK19 (antibody, V domains shown) VH: QVQLVQSGAEVKKPGASVKVSCKASGYTFTDYYLHWVRQAPGQGLEWMGWINPIFGAPNYARKFQGRVTMTRDTSISTAYMELSRLNSDDTAVYYCTHVLATYRWRFDHWGQGTLVTVSS VL: DIQMTQSPSSLSASVGDRVTFTCQASQDIGNFLNWYQQKPGKAPKLLIYDTSNLGAGVPSRFSGSGSGTDFTFTISSLQPEDIATYYCQQYATFGPGTKVDIK" result=5.43
binder="g28v2-D38-3_CLK19 (antibody, V domains shown) VH: QVQLVQSGAEVKKPGASVKVSCKASGYTFTGYFMHWVRQAPGQGLEWMGWINPHFGATNYAQKFQGRVTMTRDTSISTAYMELSRLRSDDWAVYYCTPVLATFRWRFDYWGQGTLVTVSS VL: DIQMTQSPSSLSASVGDRVTISCQASQDINNYLNWYQQKPGKAPKLLIYDTSNLETGVPSRFSGSGSGTDFTFTISSLQPEDIATYYCQQYDTFGPGTKVDIK" result=6.98

Query: Specify measured pKd for g5-D78-18_CLK19 (antibody, V domains shown) VH: QVQLVQSGAEVKKPGASVKVSCKASGYTFTGYYIHWVRQAPGQGLEWMGWINPTYGAVNYARKFQGRVTMTRDTSISTAYMELQSLRSDDTAIYHCTIALAGYRWGFDYWGQGALVTVSS VL: DIQMTQSPSSLSAFVGDRVTITCQARLDIRYSLNWYQQKPGKAPNLLIYDASNLETGVPSRFSGSGSGTNFTFTISTLQPEDIATYYCQQYETFGPGTKVDIK .
Result: 7.92
